Experiment: in vivo
Conditions: male, dog, liver level
measured.attribute: concentration at 55 day
I'd appreciate it if you wrote the number followed by its unit.

Quick one: concentration at 55 day for CC(O)(CS(=O)(=O)c1ccc(F)cc1)C(=O)Nc1ccc(C#N)c(C(F)(F)F)c1 (stereo not shown) [bicalutamide] ?
47 ng/g

---

Assay: in vivo
Details: male, dog, level in 5 mm punch biopsies surrounding device implants
measured.attribute: concentration at 55 day (ng/g)
Respond numerically; units are ng/g and should not be typed.

Quick one: concentration at 55 day for CC(O)(CS(=O)(=O)c1ccc(F)cc1)C(=O)Nc1ccc(C#N)c(C(F)(F)F)c1 (stereo not shown) [bicalutamide] ?
1430
